Test: physchem
Conditions: dimethylsulfoxide (DMSO), organic solvent or mixture
property: solubility (mg/mL)
Report only the number, with the unit mg/mL understood.

QUERY: Give the reported solubility for this molecule. C[C@]12CC[C@@H]3c4ccc(O)cc4C[C@@H](CCCCCCCCC[S+]([O-])CCCC(F)(F)C(F)(F)F)[C@H]3[C@@H]1CC[C@@H]2O (stereo partly shown)
RESULT: 320

---

Assay: Saturation solubility of fulvestrant in combinations of solvents/detergents (Table 2)
Assay type: physicochemical
Settings: 50% castor oil, 10% Lipoid E 80, 40% ethanol (% w/v), oil or lipid, thermodynamic from solid, No 12 (% w/v): 50% Castor Oil, 10% Lipoid E 80, 40% Ethanol; read-out: Solubility
property: solubility (mg/mL)
Report only the number, with the unit mg/mL understood.

QUERY: Give the reported solubility for this compound. C[C@]12CC[C@@H]3c4ccc(O)cc4C[C@@H](CCCCCCCCC[S+]([O-])CCCC(F)(F)C(F)(F)F)[C@H]3[C@@H]1CC[C@@H]2O (stereo partly shown) [Fulvestrant]
RESULT: 49.3

---

Test: Saturation solubility of fulvestrant in combinations of solvents/detergents (Table 2)
Format: physicochemical
Conditions: oil or lipid, thermodynamic from solid, No 6 (% w/v): 49.5% Oleic Acid, 49.5% Castor Oil, 1% Polysorbate 20; read-out: Solubility
property: solubility (mg/mL)
Report only the number, with the unit mg/mL understood.

QUERY: Give the reported solubility for this compound. C[C@]12CC[C@@H]3c4ccc(O)cc4C[C@@H](CCCCCCCCC[S+]([O-])CCCC(F)(F)C(F)(F)F)[C@H]3[C@@H]1CC[C@@H]2O (stereo partly shown) [Fulvestrant]
RESULT: 22.8

---

Assay: Saturation solubility of fulvestrant in combinations of solvents/detergents (Table 2)
Format: physicochemical
Conditions: solvent/detergent mixture, oil or lipid, thermodynamic from solid, No 23 (% w/v): 5% Cremophor RH 40, 5% Ethanol, 5% Benzyl Alcohol, 85% Castor Oil; read-out: Solubility
property: solubility (mg/mL)
Report only the number, with the unit mg/mL understood.

QUERY: Give the reported solubility for this compound. C[C@]12CC[C@@H]3c4ccc(O)cc4C[C@@H](CCCCCCCCC[S+]([O-])CCCC(F)(F)C(F)(F)F)[C@H]3[C@@H]1CC[C@@H]2O (stereo partly shown)
RESULT: 38

---

Assay: physchem
Conditions: ethanol, organic solvent or mixture
property: solubility (mg/mL)
Report only the number, with the unit mg/mL understood.

QUERY: Give the reported solubility for this compound. C[C@]12CC[C@@H]3c4ccc(O)cc4C[C@@H](CCCCCCCCC[S+]([O-])CCCC(F)(F)C(F)(F)F)[C@H]3[C@@H]1CC[C@@H]2O (stereo partly shown)
RESULT: 445

---

Test: Saturation solubility of fulvestrant in combinations of solvents/detergents (Table 2)
Format: physicochemical
Conditions: solvent mixture, oil or lipid, thermodynamic from solid, No 4 (% w/v): 25% Oleic Acid, 75% Castor Oil; read-out: Solubility
Procedure: To increase solubility, various other solvents, co-solvents, and surfactants were tested. […] Moreover, some solvents also required substantial quantities of emulsifier (e.g., Cremophor™ (hydrogenated castor oil reacted with ethylene oxide)), which is not desirable as an ingredient for injection at the tested concentrations. […]
property: solubility

QUERY: Give the reported solubility for this compound. C[C@]12CC[C@@H]3c4ccc(O)cc4C[C@@H](CCCCCCCCC[S+]([O-])CCCC(F)(F)C(F)(F)F)[C@H]3[C@@H]1CC[C@@H]2O (stereo partly shown)
RESULT: 18.2 mg/mL
